tested on: VMRC-LCD (Lung Adenocarcinoma); assay: Bliss excess, mean over the matrix (fraction); higher = more synergy;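 note: after 72 h of two-drug dosing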

compound	measured-target	Bliss excess
CN(CCO)CC[C@H](CSc1ccccc1)Nc1ccc(S(=O)(=O)NC(=O)c2ccc(N3CCC([C@@H](O)c4ccccc4-c4ccc(Cl)cc4)CC3)cc2)cc1S(=O)(=O)C(F)(F)F [AZD4320] + Nc1ccn([C@@H]2O[C@H](CO)[C@@H](O)C2(F)F)c(=O)n1 [Gemcitabine] (first compound max 1 µM, 7x7, partner max 0.3 µM)	VMRC-LCD (Lung Adenocarcinoma)	-0.0095
NC1(C(=O)N[C@@H](CCO)c2ccc(Cl)cc2)CCN(c2ncnc3[nH]ccc23)CC1 [Capivasertib] + COc1nnc2ccc(N3CCC(c4ccc(OCCN5CCN(C)C(=O)[C@H]5C)cc4)CC3)nn12 [AZD5153] (first compound max 10 µM, 7x7, partner max 1 µM)	VMRC-LCD (Lung Adenocarcinoma)	0.0154
Cc1cc2ncnn2cc1Nc1ncc2c(n1)n(C1CCOCC1)c(=O)n2C [AZD7648] + C[C@@H]1COCCN1C2=NC(=NC(=C2)C3(CC3)[S@](=N)(=O)C)C4=C5C=CNC5=NC=C4 [AZD6738] (first compound max 10 µM, 7x7, partner max 10 µM)	VMRC-LCD (Lung Adenocarcinoma)	0.0143
COc1nnc2ccc(N3CCC(c4ccc(OCCN5CCN(C)C(=O)[C@H]5C)cc4)CC3)nn12 [AZD5153] + Cn1cnc2c(F)c(Nc3ccc(Br)cc3Cl)c(C(=O)NOCCO)cc21 [Selumetinib] (first compound max 1 µM, 7x7, partner max 10 µM)	VMRC-LCD (Lung Adenocarcinoma)	-0.0401
CC(=O)c1c(C)c2cnc(Nc3ccc(N4CCNCC4)cn3)nc2n(C2CCCC2)c1=O [Palbociclib] + CC1(C)CCC(CN2CCN(c3ccc(C(=O)NS(=O)(=O)c4ccc(NCC5CCOCC5)c([N+](=O)[O-])c4)c(Oc4cnc5[nH]ccc5c4)c3)CC2)=C(c2ccc(Cl)cc2)C1 [Venetoclax] (first compound max 10 µM, 7x7, partner max 1 µM)	VMRC-LCD (Lung Adenocarcinoma)	-0.0377
C[C@@H](Nc1cc(F)cc(F)c1)c1cc(C(=O)N(C)C)cc2c(=O)cc(N3CCOCC3)oc12 [AZD8186] + C1CN(CCC1(C(=O)N[C@@H](CCO)C2=CC=C(C=C2)Cl)N)C3=NC=NC4=C3C=CN4 [AZD5363] (first compound max 10 µM, 7x7, partner max 10 µM)	VMRC-LCD (Lung Adenocarcinoma)	-0.025
CN(C)CCCOc1ccc(-c2ccc3ncc4c(c3c2)n(C2CCOCC2)c(=O)n4C)cn1 [AZD0156] + O=C(c1cc(Cc2n[nH]c(=O)c3ccccc23)ccc1F)N1CCN(C(=O)C2CC2)CC1 [Olaparib] (first compound max 3 µM, partner max 3 µM)	VMRC-LCD (Lung Adenocarcinoma)	-0.0489
CN(CCO)CC[C@H](CSc1ccccc1)Nc1ccc(S(=O)(=O)NC(=O)c2ccc(N3CCC([C@@H](O)c4ccccc4-c4ccc(Cl)cc4)CC3)cc2)cc1S(=O)(=O)C(F)(F)F [AZD4320] + C1CN(CCC1(C(=O)N[C@@H](CCO)C2=CC=C(C=C2)Cl)N)C3=NC=NC4=C3C=CN4 [Capivasertib] (first compound max 1 µM, 7x7, partner max 3 µM)	VMRC-LCD (Lung Adenocarcinoma)	-0.0521
O=C(c1cc(Cc2n[nH]c(=O)c3ccccc23)ccc1F)N1CCN(C(=O)C2CC2)CC1 [Olaparib] + COc1nnc2ccc(N3CCC(c4ccc(OCCN5CCN(C)C(=O)[C@H]5C)cc4)CC3)nn12 [AZD5153] (first compound max 10 µM, 7x7, partner max 1 µM)	VMRC-LCD (Lung Adenocarcinoma)	-0.0707
CC1(C)CCC(CN2CCN(c3ccc(C(=O)NS(=O)(=O)c4ccc(NCC5CCOCC5)c([N+](=O)[O-])c4)c(Oc4cnc5[nH]ccc5c4)c3)CC2)=C(c2ccc(Cl)cc2)C1 [Venetoclax] + Cn1cnc2c(F)c(Nc3ccc(Br)cc3Cl)c(C(=O)NOCCO)cc21 [Selumetinib] (first compound max 1 µM, 7x7, partner max 3 µM)	VMRC-LCD (Lung Adenocarcinoma)	-0.0386
O=C(c1cc(Cc2n[nH]c(=O)c3ccccc23)ccc1F)N1CCN(C(=O)C2CC2)CC1 [Olaparib] + CC1(C)CCC(CN2CCN(c3ccc(C(=O)NS(=O)(=O)c4ccc(NCC5CCOCC5)c([N+](=O)[O-])c4)c(Oc4cnc5[nH]ccc5c4)c3)CC2)=C(c2ccc(Cl)cc2)C1 [Venetoclax] (first compound max 10 µM, 7x7, partner max 1 µM)	VMRC-LCD (Lung Adenocarcinoma)	-0.0266
C[C@@H](Oc1cc(-c2cnn(C3CCNCC3)c2)cnc1N)c1c(Cl)ccc(F)c1Cl [Crizotinib] + CC1=C(C(=CC=C1)Cl)NC(=O)C2=CN=C(S2)NC3=CC(=NC(=N3)C)N4CCN(CC4)CCO [Dasatinib] (first compound max 10 µM, 7x7, partner max 2 µM)	VMRC-LCD (Lung Adenocarcinoma)	-0.0545
Cc1c2c(nn1C)CSCc1cc(n(C)n1)CSc1cc(c3ccccc3c1)OCCCc1c(C(=O)O)n(C)c3c-2c(Cl)ccc13 [AZD5991] + CC1(C)CCC(CN2CCN(c3ccc(C(=O)NS(=O)(=O)c4ccc(NCC5CCOCC5)c([N+](=O)[O-])c4)c(Oc4cnc5[nH]ccc5c4)c3)CC2)=C(c2ccc(Cl)cc2)C1 [Venetoclax] (first compound max 1 µM, 7x7, partner max 1 µM)	VMRC-LCD (Lung Adenocarcinoma)	-0.0217
